System: SNB-75 CNS
Experiment: NCI-60 one-dose screen, 48 h
Details: 10 µM
Compounds without any hit were thinned out: in the full panel of roughly 83,000, 20% have a hit. Active and inactive are the calls of the source. How the source made its calls: active means growth percent below 10; inactive means the rest.
Outcomes: active, inactive

- Compound: "CN1C(=O)CN2CCc3ccccc3C2c2cc(Cl)ccc21 (stereo not drawn)"
  Class: "inactive"
- Compound: "O=C(/C=C\\c1ccc(O)cc1)c1ccccc1"
  Class: "inactive"
- Compound: "CC1(C)/C(=C\\CO)C2CCC1C2 (stereo not drawn)"
  Class: "inactive"
- Compound: "COc1ccc(-c2cc3c(nn2)-c2ccccc2C3=O)cc1"
  Class: "active"
- Compound: "O=C1Cc2cc(O)ccc2O1"
  Class: "inactive"
- Compound: "C/C(=C\\c1ccc([N+](=O)[O-])cc1)C(=O)O"
  Class: "inactive"
- Compound: "S=C1NCc2cncnc2N1"
  Class: "inactive"
- Compound: "COc1cc2c(cc1O)CC[C@@H]1C2CC[C@@]2(C)C1CC[C@@H]2O (stereo partly drawn)"
  Class: "active"
- Compound: "COc1cc(C(N)=O)cc(OC)c1OC"
  Class: "inactive"
- Compound: "CN(C)/N=C/c1ccccc1O"
  Class: "inactive"
- Compound: "O=C(Cc1nc2ccc([N+](=O)[O-])cc2nc1CC(=O)c1cccnc1)c1cccnc1"
  Class: "active"
- Compound: "NC(C(=O)O)c1ccc([N+](=O)[O-])cc1 (stereo not drawn)"
  Class: "inactive"
- Compound: "CC(C)(C)c1cc(O)c(C(C)(C)C)cc1O"
  Class: "inactive"

###

Test system: K-562 leukemia
Assay: NCI-60 one-dose screen, 48 h
Details: 10 µM
This is part of a sample that, as a whole, favours compounds with a hit. Of some 83,000 tested, about 20% had one in any assay. Active and inactive are the calls of the source. The calls were made as follows: active = growth percent below 10; inactive = the rest.
Possible outcomes: t (active), f (inactive)

- Compound: "O=C(O)/C=C/C(=O)NCc1ccccc1"
  Class: "f"
- Compound: "CN(C)Cc1cc(C(C)(C)CC(C)(C)C)ccc1O"
  Class: "f"
- Compound: "CC1=NN(c2ccccc2)C(=O)/C1=C\\N1CC(=O)NC1=S"
  Class: "f"
- Compound: "COc1cc(/C=C/C(=O)c2ccccc2)cc(OC)c1OC"
  Class: "f"
- Compound: "CC(=O)c1ccc(C(C)(C)C)cc1"
  Class: "f"
- Compound: "COc1cccc(Sc2ccc([N+](=O)[O-])c3no[n+]([O-])c23)c1"
  Class: "t"
- Compound: "NC(N)=Nc1cc2ccccc2c2ccccc12"
  Class: "f"
- Compound: "CN(C)c1ccc(CNC(C(=O)c2ccccc2)c2ccccc2)cc1 (centres undefined)"
  Class: "f"
- Compound: "Cc1cc2nc(CC(=O)c3ccccc3)c(=O)[nH]c2cc1C"
  Class: "f"
- Compound: "COc1cc(CN)ccc1O"
  Class: "f"
- Compound: "COc1ccc(-c2cc3c(nn2)-c2ccccc2C3=O)cc1"
  Class: "f"
- Compound: "O=S(=O)(Cc1ccccc1)c1ccccc1"
  Class: "f"
- Compound: "O=S(=O)(O)CC(O)CN1CCN(CCO)CC1 (centres undefined)"
  Class: "f"
- Compound: "CCn1c(=O)n(C)c2c(=O)n(C)c(=O)n(C)c21"
  Class: "f"
- Compound: "N/N=C(/Cc1ccccc1)NNC(N)=S"
  Class: "f"
- Compound: "O=C(Cc1ccc(OCc2ccccc2)cc1)NCc1ccc2c(c1)OCO2"
  Class: "f"
- Compound: "COc1cc(C(=O)N/N=C/c2cccc([N+](=O)[O-])c2)cc(OC)c1OC"
  Class: "f"
- Compound: "CCOC(=O)c1ccc(NC(=S)P(=O)(c2ccccc2)c2ccccc2)cc1"
  Class: "f"
- Compound: "CC1(C)/C(=C\\CO)C2CCC1C2 (centres undefined)"
  Class: "f"
- Compound: "CC(C(=O)O)(C1CCCCC1)C1(O)CCCCC1 (centres undefined)"
  Class: "f"
- Compound: "O=C(O)c1cccc([N+](=O)[O-])c1"
  Class: "f"
- Compound: "CCOC(=O)C1=C(C)NC(=O)NC1c1cccs1 (centres undefined)"
  Class: "f"
- Compound: "CC(=O)c1sc2c(c1OC(=O)c1ccc(Cl)cc1Cl)c(=O)n(-c1ccccc1)c(=S)n2-c1ccccc1"
  Class: "t"
- Compound: "CN(C)C(C)(C)CC(C)(C)C"
  Class: "f"
- Compound: "NC(=S)CN1CCOCC1"
  Class: "f"
- Compound: "C[N+](C)=c1ccc2nc3c(cc(Nc4ccccc4)c4ccccc43)oc-2c1"
  Class: "f"
- Compound: "CC1CCC(C(=O)O)N1 (centres undefined)"
  Class: "f"
- Compound: "CC(C)NC(=O)OCc1c(COC(=O)NC(C)C)c(-c2ccc(Cl)c(Cl)c2)n2c1SCC2"
  Class: "f"
- Compound: "O=C(NCc1ccco1)Nc1c(Cl)cc(Cl)cc1Cl"
  Class: "f"
- Compound: "CC1Cc2ccccc2O1 (centres undefined)"
  Class: "f"
- Compound: "CCNc1nc2c(cnn2C)c(=O)[nH]1"
  Class: "f"
- Compound: "CC1C(=O)c2ccccc2CC1C(=O)O (centres undefined)"
  Class: "f"
- Compound: "CCCCC(CC)COC(C)=O (centres undefined)"
  Class: "f"
- Compound: "CCCCOC(=O)c1ccc(C(C)C)cc1"
  Class: "f"
- Compound: "CC(C)=NNc1ccc([N+](=O)[O-])cc1[N+](=O)[O-]"
  Class: "f"
- Compound: "Cc1ncc(C#N)c(N)n1"
  Class: "f"
- Compound: "Cc1ccc(C(O)C2CC2)cc1 (centres undefined)"
  Class: "f"
- Compound: "C=CC(=O)OCCCCCCCC"
  Class: "f"
- Compound: "[O-][N+](=Nc1cccc(Cl)c1)c1cccc(Cl)c1"
  Class: "f"
- Compound: "COC(=O)CCCCC1=CCC2C(=O)C=C(O)C2C1 (centres undefined)"
  Class: "f"
- Compound: "O=c1[nH]cc(Cl)cc1O"
  Class: "f"
- Compound: "NC(=O)c1ccc(N=C(N)N=C(N)N)cc1"
  Class: "f"
- Compound: "Nc1ccc(N)c([N+](=O)[O-])c1"
  Class: "f"
- Compound: "CCC(=O)Oc1ccc(OC)cc1"
  Class: "f"
- Compound: "Cc1ccc(CCCC(=O)O)c(C)c1"
  Class: "f"
- Compound: "C/C(=N\\O)C1(O)CCCCC1"
  Class: "f"
- Compound: "CC(=O)OCC1CCCO1 (centres undefined)"
  Class: "f"
- Compound: "CC(C)(C)n1nc(C2CC2)c(Br)c1NC(=O)c1ccccc1F"
  Class: "f"
- Compound: "COc1cc2c(cc1O)CC[C@@H]1C2CC[C@@]2(C)C1CC[C@@H]2O (some centres undefined)"
  Class: "t"
- Compound: "Nc1ccc(N=Nc2ccc(S(=O)(=O)O)cc2)c2ccccc12"
  Class: "f"
- Compound: "CCCCNC1(C#N)CCN(Cc2ccccc2)CC1"
  Class: "f"
- Compound: "CC1NC(=O)NC1CCCCCC(=O)O (centres undefined)"
  Class: "f"
- Compound: "Cc1cc(N)ccc1-c1ccc(N)cc1C"
  Class: "f"
- Compound: "C/C(=N\\NC(=O)c1ccccc1N)c1ccccc1O"
  Class: "f"

###

This section presents compounds with their documented growth values.
System: NCI-H322M lung
Assay: NCI-60 one-dose screen, 48 h (100 = growth as untreated, 0 = no growth, -100 = all killed)
Conditions: 10 µM
This is part of a sample that, as a whole, favours compounds with a hit. Of some 83,000 tested, about 20% had one in any assay.

- Compound: "COc1ccc(Oc2c(I)cc(CC(NC(C)=O)C(=O)O)cc2I)cc1 (configuration not stated)"
  growth / %: 102
- Compound: "OCCN(CCO)C(=S)S"
  growth / %: 103
- Compound: "O=C1OC[C@H]2[C@H](c3ccc(O)c(O)c3)c3cc(O)c(O)cc3C[C@H]12"
  growth / %: 130
- Compound: "O=[N+]([O-])c1ccc(CO)cc1"
  growth / %: 98.9
- Compound: "CC(=O)c1ccc(N=C(C#N)C2=C(O)c3ccccc3C2=O)cc1"
  growth / %: 100
- Compound: "Nc1nc(OCc2ccccc2)c2[nH]cnc2n1"
  growth / %: 118
- Compound: "CCCCCCCCCCC(C)Br (configuration not stated)"
  growth / %: 94.5
- Compound: "CCC/C=C(\\C)C(C)(C#N)C(=O)OCC (configuration not stated)"
  growth / %: 111
- Compound: "CCCC[P+](c1ccccc1)(c1ccccc1)c1ccccc1"
  growth / %: 95.1
- Compound: "O=[N+]([O-])c1ccc(/C=C/C=C/c2ccccc2)c(Cl)c1"
  growth / %: 96.4
- Compound: "O=S(=O)(O)C(Nc1ccccc1)c1ccccc1 (configuration not stated)"
  growth / %: 97.6
- Compound: "COc1ccccc1NC(=O)C1=C(C)NC(C)=C(C(=O)Nc2ccccc2OC)C1c1cccc([N+](=O)[O-])c1"
  growth / %: 91.2
